B1: library; a variant is named by its letters at N, in order (parent)
chain: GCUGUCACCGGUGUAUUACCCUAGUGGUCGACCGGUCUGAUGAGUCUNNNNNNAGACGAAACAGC

- Variants of: B1
- Assay Info: normalized RNA/DNA level with ligand (relative to sTRSVctl = 100) (log10 (% of sTRSVctl)); ligand: hypoxanthine (xanthine aptamer); higher = less ribozyme self-cleavage, higher mRNA level
- Setup Conditions: ligand concentration (+) RNA-Seq: 5 mM, HEK293T, reporter: mCherry (pCS4076), ligand present: yes
Measured normalized RNA/DNA level with ligand (log10) accompanies every entry in the list below.
Endpoint Label: normalized RNA/DNA level with ligand (log10)

- AUCUAU: 1.93
- GGAGGC: 1.82
- AUGCCU: 1.96
- AUUCAA: 1.91
- UAUCGA: 1.92
- UUUAUC: 1.97
- CCCAUA: 1.9
- UGACGA: 1.94
- ACUGGG: 1.86
- GAGUCA: 1.91
- ACAGCA: 1.94
